# Test system: SF-295
# Protocol Text: NCI tumour cell line growth inhibition, 48 h
Calls of active or inactive are those of the source. No stated cut-off is given here; in the data, active = GI50 up to about 1.1 µM and inactive = higher.
Reported Endpoint: GI50

# Compound, Observed Measurement
records = [
    ("COc1ccccc1NC(=O)C1=C(C)NC(C)=C(C(=O)Nc2ccccc2OC)C1c1cccc2ccccc12", "90.6 µM (inactive)"),
]

Let us move to another entry and its GI50.
Request: Look at this compound and give its reported GI50. NC(=O)C(c1ccccc1)N1OC2C(=O)N(c3cccc4ccccc34)C(=O)C2C1c1c2ccccc2c(Cl)c2ccccc12 (stereo unspecified)
Result: 9.75 µM (inactive)

====

# Tested on: RXF 393
# Protocol Text: NCI tumour cell line growth inhibition, 48 h
The source made the active and inactive calls. Cut-off read from the data, not from the text of the source: active = GI50 up to about 1.1 µM and inactive = higher.
Outcome field: choose from active, inactive

For orientation, consider the following solved cases.
# Compound, Group Label
measured = [
    ("CCO/C(CCn1[nH]c(=O)c(Cl)c(Cl)c1=O)=N\\NC(=O)C(=O)NN", "inactive"),
    ("CCCCCCCCCCCCCCCC(=O)OCC1OC(OC)C(NC(=O)N(CCCl)N=O)C(O)C1O (centres undefined)", "inactive"),
    ("COc1cc([C@@H]2c3cc4c(cc3[C@@H](Nc3ccc(NC(=O)c5cc([N+](=O)[O-])cn5C)cc3)[C@H]3COC(=O)[C@H]23)OCO4)cc(OC)c1O", "active"),
    ("COC(=O)c1ccccc1CC1Cc2cccc(C)c2C1=O (centres undefined)", "inactive"),
    ("CC(C)=CCc1cc2c(cc1O)OC[C@H]1c3cc4c(cc3O[C@@H]21)OCO4", "inactive"),
]

Request: Per the records of this test, what outcome belongs to CC1=NN(C(=O)c2ccccc2O)C(=O)/C1=C/c1ccc([N+](=O)[O-])cc1 ?
Result: active
